All figures here come from ChEMBL document CHEMBL4725468.

test system: MIA PaCa-2; experiment: Antiproliferation activity against human MIAPaCa2 cells assessed as reduction in cell viability at 2.5 uM incubated for 48 hrs by MTT assay relative to control; type: functional
ASSAY READOUT: Activity (%)
Answers are plain numbers, in %.

Example compounds with recorded Activity:
Cc1noc(C)c1-c1ccc2c(c1)C(c1ccccc1)N(Cc1cn(CCCCCCn3cc(CN4C(=O)Nc5ccc(-c6c(C)noc6C)cc5C4c4ccccc4)nn3)nn1)C(=O)N2 (stereo unspecified) : 57.2
Cc1noc(C)c1-c1ccc2c(c1)C(c1ccccc1)N(CCCCN1C(=O)N(C)c3ccc(-c4c(C)noc4C)cc3C1c1ccccc1)C(=O)N2C (stereo unspecified) : 68.2
Cc1noc(C)c1-c1ccc2c(c1)C(c1ccccc1)N(Cc1cn(CCOCCOCCOCCn3cc(CN4C(=O)N(C)c5ccc(-c6c(C)noc6C)cc5C4c4ccccc4)nn3)nn1)C(=O)N2C (stereo unspecified) : 68.4
Cc1noc(C)c1-c1ccc2c(c1)C(c1ccccc1)N(CCOCCOCCN1C(=O)N(C)c3ccc(-c4c(C)noc4C)cc3C1c1ccccc1)C(=O)N2C (stereo unspecified) : 67.3
Cc1noc(C)c1-c1ccc2c(c1)C(c1ccccc1)N(Cc1cn(CCOCCOCCn3cc(CN4C(=O)Nc5ccc(-c6c(C)noc6C)cc5C4c4ccccc4)nn3)nn1)C(=O)N2 (stereo unspecified) : 63.2

Continue with the next compound.
The value of Activity measured for the compound "Cc1sc2c(c1C)C(c1ccc(Cl)cc1)=N[C@@H](CC(=O)OC(C)(C)C)c1nnc(C)n1-2" turned out to be 56.2

====

target: Bromodomain-containing protein 4 (Homo sapiens, UniProt O60885); test: Inhibition of BRD4 bromodomain1 (unknown origin) using peptide histone H4 (SGRGACKGGACKGLGAC-KGGAACKRHGSGSK-biotin) as substrate incubated for 15 mins followed by substrate addition measured after 1 hr by alphascreen assay
ASSAY READOUT: pIC50
One number for each entry, as −log10 of the molar value.

Cc1noc(C)c1-c1ccc2c(c1)C(c1ccccc1)N(Cc1cn(CCOCCOCCOCCn3cc(CN4C(=O)N(C)c5ccc(-c6c(C)noc6C)cc5C4c4ccccc4)nn3)nn1)C(=O)N2C (stereo unspecified) : 8.11

Dear colleague, could you please provide pIC50 for the compounds listed below?
1. Cc1noc(C)c1-c1ccc2c(c1)C(c1ccccc1)N(CCCCN1C(=O)N(C)c3ccc(-c4c(C)noc4C)cc3C1c1ccccc1)C(=O)N2C (stereo unspecified)
2. CCS(=O)(=O)Nc1ccc(Oc2ccc(F)cc2F)c(-c2cn(C)c(=O)c3[nH]ccc23)c1

Result:
1. 7.89
2. 8.60

====

test system: MIA PaCa-2; experiment: Antiproliferation activity against human MIAPaCa2 cells assessed as reduction in cell viability at 2.5 uM incubated for 48 hrs by MTT assay relative to control; format: functional
Exercise: for every item that follows, state its recorded Activity.
Answers are plain numbers, in %.

Batch of 4 molecules: report Activity for each.
1. Cc1noc(C)c1-c1ccc2c(c1)C(c1ccccc1)N(Cc1cn(CCOCCOCCOCCn3cc(CN4C(=O)Nc5ccc(-c6c(C)noc6C)cc5C4c4ccccc4)nn3)nn1)C(=O)N2 (stereo unspecified)
2. Cc1noc(C)c1-c1ccc2c(c1)C(c1ccccc1)N(Cc1cn(CCn3cc(CN4C(=O)Nc5ccc(-c6c(C)noc6C)cc5C4c4ccccc4)nn3)nn1)C(=O)N2 (stereo unspecified)
3. CCS(=O)(=O)Nc1ccc(Oc2ccc(F)cc2F)c(-c2cn(C)c(=O)c3[nH]ccc23)c1
4. Cc1noc(C)c1-c1ccc2c(c1)C(c1ccccc1)N(Cc1cn(CCOCCn3cc(CN4C(=O)Nc5ccc(-c6c(C)noc6C)cc5C4c4ccccc4)nn3)nn1)C(=O)N2 (stereo unspecified)

Result:
[66.4, 62.2, 64.3, 54.4]

Answer for every listed entry: what is its Activity? The entries follow.
1. Cc1noc(C)c1-c1ccc2c(c1)C(c1ccccc1)N(CCOCCOCCOCCN1C(=O)N(C)c3ccc(-c4c(C)noc4C)cc3C1c1ccccc1)C(=O)N2C (stereo unspecified)
2. Cc1noc(C)c1-c1ccc2c(c1)C(c1ccccc1)N(CCCCCCN1C(=O)N(C)c3ccc(-c4c(C)noc4C)cc3C1c1ccccc1)C(=O)N2C (stereo unspecified)

Result:
[73.4, 70.9]

====

molecular target: Bromodomain-containing protein 4 (Homo sapiens); test: Inhibition of BRD4 bromodomain1 (unknown origin) using peptide histone H4 (SGRGACKGGACKGLGAC-KGGAACKRHGSGSK-biotin) as substrate incubated for 15 mins followed by substrate addition measured after 1 hr by alphascreen assay
pIC50: −log10 of the molar value.
ASSAY READOUT: pIC50

Each compound below has a reported value. Please supply its pIC50.
1. Cc1noc(C)c1-c1ccc2c(c1)C(c1ccccc1)N(Cc1cn(CCOCCOCCOCCn3cc(CN4C(=O)Nc5ccc(-c6c(C)noc6C)cc5C4c4ccccc4)nn3)nn1)C(=O)N2 (stereo not drawn)
2. Cc1noc(C)c1-c1ccc2c(c1)C(c1ccccc1)N(Cc1cn(CCOCCOCCn3cc(CN4C(=O)Nc5ccc(-c6c(C)noc6C)cc5C4c4ccccc4)nn3)nn1)C(=O)N2 (stereo not drawn)
3. Cc1noc(C)c1-c1ccc2c(c1)C(c1ccccc1)N(Cc1cn(CCCCCCn3cc(CN4C(=O)Nc5ccc(-c6c(C)noc6C)cc5C4c4ccccc4)nn3)nn1)C(=O)N2 (stereo not drawn)

Result:
1. > 8.68
2. > 8.68
3. > 8.68
